System: L1210 leukemia ip in BDF1 mice, survival T/C
Assay: NCI In Vivo Anticancer Drug Screen. Data for tumor model L1210 Leukemia (intraperitoneal) in B6D2F1 (BDF1) mice
Settings: endpoint: mean survival time; dose: 200.0 mg/kg/injection; schedule: Q01DX001 (ip); vehicle: carboxymethylcellulose (CMC); higher = longer survival
Protocol: The antitumor activity of compounds was measured in mice bearing transplantable tumors. Survival or tumor size were measured and the results are expressed as the measurement made in the treated group (T) divided by the measurement made in the vehicle treated control group (C). The tumor model used in this assay is L1210 Leukemia (intraperitoneal) in B6D2F1 (BDF1) mice
Inconclusive results and toxic doses are left out.
observable: T/C

The cases that follow already have their T/C on record.
smiles_notation: NNC(=O)CNc1cc(Cl)cc(Cl)c1
T/C: 96 % of control
//
smiles_notation: CCOC(=O)Nc1cc(N)c([N+](=O)[O-])c(NC(c2ccccc2)c2ccccc2)n1
T/C: 87 % of control
//
smiles_notation: CC(=O)OCCC/C(=C\c1ccc(N(C)C)cc1)[N+](=O)[O-]
T/C: 91 % of control
//
smiles_notation: COc1ccc(CN2CCCN(Cc3ccc(OC)cc3OC)C2c2ccc(N(CCCl)CCCl)cc2Cl)c(OC)c1
T/C: 98 % of control
//
smiles_notation: COC1=C(NC(C)(C)C)C(=O)C(OC)=C(NC(C)(C)C)C1=O
T/C: 109 % of control

Value sought for every listed molecule: T/C.
1. O=[N+]([O-])c1cc(N(c2ccccc2)c2ccccc2)ccc1Cl
2. Nc1cc(Cl)ccc1Nc1ccccc1
3. C1=Cc2ccccc2Sc2ccccc21
4. CN(C)N=Nc1ccccc1C(=O)NN

a:
1: 97 % of control; 2: 101 % of control; 3: 98 % of control; 4: 101 % of control

Value sought for every listed molecule: T/C.
1. COc1ccc2c(c1OC)CN(C)CCc1cc3c(cc1C(=O)C2)OCO3
2. CC(=O)CC(=O)C(F)(F)F.CC(=O)CC(=O)C(F)(F)F.CC(=O)CC(=O)C(F)(F)F.[Cr]

a:
1: 96 % of control; 2: 96 % of control

----------
System: L1210 leukemia ip in BDF1 mice, survival T/C
Test: NCI In Vivo Anticancer Drug Screen. Data for tumor model L1210 Leukemia (intraperitoneal) in B6D2F1 (BDF1) mice
Settings: endpoint: mean survival time; dose: 100.0 mg/kg/injection; schedule: Q01DX001 (ip); vehicle: saline; higher = longer survival
Inconclusive results and toxic doses are left out.
Please provide measured T/C for the entries that follow.

The cases that follow already have their T/C on record.
molecule: CCCN(CCC)CCCN(CCC)CCCCN(CCC)CCCN(CCC)CCC
T/C: 98 % of control
//
molecule: CC(=O)OC1COC(n2cnc3c(N4CCCCC4)ncnc32)C(OC(C)=O)C1OC(C)=O (stereo not given)
T/C: 100 % of control
//
molecule: CNCC(O)c1ccccc1 (stereo not given)
T/C: 96 % of control
//
molecule: COc1ccccc1/C(C)=N\NC(N)=O
T/C: 97 % of control

Value sought for every listed molecule: T/C.
1. O=[N+]([O-])c1cc2c(nc3ccccn32)c2ccccc12
2. Nc1c(Cl)cc(S(=O)(=O)O)cc1Br

a:
1: 96 % of control; 2: 103 % of control
